Measured IC50 of individual entries
TGT: DNA gyrase subunit B (Mycobacterium smegmatis, UniProt P0C559)
Sequence (P0C559 whole entry, the tested form may be a part): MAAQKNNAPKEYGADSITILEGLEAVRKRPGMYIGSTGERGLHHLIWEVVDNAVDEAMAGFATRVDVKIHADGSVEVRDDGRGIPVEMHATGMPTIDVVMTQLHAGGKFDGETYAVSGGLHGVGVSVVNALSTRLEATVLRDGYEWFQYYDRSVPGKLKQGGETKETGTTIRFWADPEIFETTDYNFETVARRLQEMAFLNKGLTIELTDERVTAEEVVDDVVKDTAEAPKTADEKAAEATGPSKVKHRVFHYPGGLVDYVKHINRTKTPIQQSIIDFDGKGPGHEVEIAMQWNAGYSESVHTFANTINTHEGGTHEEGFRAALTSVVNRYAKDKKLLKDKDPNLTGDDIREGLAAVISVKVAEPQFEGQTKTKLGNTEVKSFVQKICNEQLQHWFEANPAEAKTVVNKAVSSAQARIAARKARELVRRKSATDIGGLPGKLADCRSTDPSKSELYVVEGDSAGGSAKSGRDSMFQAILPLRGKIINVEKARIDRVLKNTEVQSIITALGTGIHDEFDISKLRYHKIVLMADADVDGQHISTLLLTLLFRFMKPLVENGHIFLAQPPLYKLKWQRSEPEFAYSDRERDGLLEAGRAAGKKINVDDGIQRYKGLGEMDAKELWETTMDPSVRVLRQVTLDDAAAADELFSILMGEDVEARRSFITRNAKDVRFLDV
PROTOCOL SUMMARY: Inhibition of Mycobacterium smegmatis DNA GyrB domain assessed as inhibition of inorganic phosphate release after 100 mins at room temperature by ATPase assay
API: value field is a number in µM; no unit string.

In the examples that follow, each entry is paired with its recorded IC50.
NC(=O)c1cc(-c2ccccc2)sc1NC(=S)Nc1ccccc1 ... 70.3
NC(=O)c1cc(-c2ccccc2)sc1NC(=O)C1CCCC1 ... 42.2
NC(=O)c1cc(-c2ccccc2)sc1NC(=O)c1cccs1 ... 1.5

// sample NC(=O)c1cc(-c2ccccc2)sc1NC(=O)c1cnccn1 , its IC50 was 18.4

// sample CC(C)NC(=O)Nc1sc(-c2ccccc2)cc1C(N)=O , its IC50 was 6.47

// sample NC(=O)c1cc(-c2ccccc2)sc1NC(=S)NCc1ccccc1 , its IC50 was 28.3

// sample NC(=O)c1cc(-c2ccccc2)sc1NC(=O)c1cc2ccccc2[nH]1 , its IC50 was 22

// sample CCC(=O)Nc1sc(-c2ccccc2)cc1C(N)=O , its IC50 was 11.8

// sample Cc1ccc(NC(=O)Nc2sc(-c3ccccc3)cc2C(N)=O)cc1 , its IC50 was 24

// sample NC(=O)c1cc(-c2ccccc2)sc1NC(=O)c1ccccc1 , its IC50 was 0.86

// sample CC(=O)Nc1sc(-c2ccccc2)cc1C(N)=O , its IC50 was 19.1

// sample Cc1ccc(NC(=S)Nc2sc(-c3ccccc3)cc2C(N)=O)cc1 , its IC50 was 2.46

// sample NC(=O)c1cc(-c2ccccc2)sc1NC(=O)Nc1ccc(Cl)cc1 , its IC50 was 3.14

// sample NC(=O)c1cc(-c2ccccc2)sc1NC(=O)Nc1ccccc1 , its IC50 was 1.83

// sample NC(=O)c1cc(-c2ccccc2)sc1NC(=O)c1ccc(Oc2ccccc2)cc1 , its IC50 was 17.3

// sample NC(=O)c1cc(-c2ccccc2)sc1NC(=O)c1cccc2ccccc12 , its IC50 was 28.6

// sample NC(=O)c1cc(-c2ccccc2)sc1NC(=S)Nc1ccc(Cl)cc1 , its IC50 was 71.4

// sample NC(=O)c1cc(-c2ccccc2)sc1NC(=S)Nc1ccc(F)cc1 , its IC50 was 48.9

Cited source: ChEMBL document CHEMBL3400074
